- Tested on: Caco-2 cell monolayer
- assayMethodText: Accumulation of AGEs in the Caco-2 cell monolayer after transport experiment
- Format: in vitro ADME, Human
- details: 4 °C; mixture, each AGE 100 μmol/L; 2 h
Marks after values point to notes of the source that are not given here.
metricName: percentage of the amount added at the apical side at t = 0: accumulation

Worked cases, percentage of the amount added at the apical side at t = 0: accumulation given:
INSERT INTO results (compound, targetofassay, endpointresult) VALUES
  ('CC1NC(NCCC[C@H](N)C(=O)O)=NC1=O (stereo partly drawn) [MG-H1, methylglyoxal–hydroimidazolone]', 'Caco-2 cell monolayer', '0.0 ± 0.0 ^b %'),
  ('N[C@@H](CCCCNC(=O)CO)C(=O)O [GALA, glycolic acid–lysine–amide]', 'Caco-2 cell monolayer', '0.0 ± 0.0 ^b %'),
  ('N[C@@H](CCCCn1c(C=O)ccc1CO)C(=O)O [pyrraline]', 'Caco-2 cell monolayer', '0.0 ± 0.0 ^b %'),
  ('Cc1nc(NCCC[C@H](N)C(=O)O)nc(C)c1O [argpyrimidine]', 'Caco-2 cell monolayer', '0.0 ± 0.0 ^b %');

Each compound below has a reported value. Please supply its percentage of the amount added at the apical side at t = 0: accumulation.
1. N[C@@H](CCCCNCC(=O)O)C(=O)O [CML, N-ε-(carboxymethyl)-lysine]
2. CC(NCCCC[C@H](N)C(=O)O)C(=O)O (stereo partly drawn) [CEL, N-ε-(carboxyethyl)-lysine]
3. N[C@@H](CCCCn1cc[n+](CCCC[C@H](N)C(=O)O)c1)C(=O)O [GOLD, glyoxal-derived lysine dimer]
4. Cc1c[n+](CCCC[C@H](N)C(=O)O)cn1CCCC[C@H](N)C(=O)O [MOLD, methylglyoxal–lysine dimer]
5. N[C@@H](CCCC[n+]1cccc2[nH]c(NCCC[C@H](N)C(=O)O)nc21)C(=O)O [pentosidine]

## Result
0.3 ± 0.3 ^c %
0.0 ± 0.0 ^b %
0.0 ± 0.0 ^c %
0.0 ± 0.0 ^a %
0.0 ± 0.0 ^a %

* * *

- assayMethodText: Transport of AGE mixture across Caco-2 cell layer (transwell, apical to basolateral)
- Assay type: in vitro ADME, Human
- details: human, Caco-2, cytochalasin D pretreatment; mixture, each AGE 100 μmol/L; 2 h; read-out: percentage of the amount added at the apical side at t = 0: recovery
Kindly state recovery at 2 h, 100 μmol/L for each of the entries shown.
Answers are plain numbers, in %.

Worked cases, recovery at 2 h, 100 μmol/L given:
INSERT INTO assay_data (compound, endpointresult) VALUES
  ('N[C@@H](CCCCn1c(C=O)ccc1CO)C(=O)O', 90.3),
  ('Cc1c[n+](CCCC[C@H](N)C(=O)O)cn1CCCC[C@H](N)C(=O)O', 91.7),
  ('N[C@@H](CCCCn1cc[n+](CCCC[C@H](N)C(=O)O)c1)C(=O)O', 102),
  ('Cc1nc(NCCC[C@H](N)C(=O)O)nc(C)c1O', 94.7),
  ('N[C@@H](CCCCNC(=O)CO)C(=O)O [GALA, glycolic acid–lysine–amide]', 89.7);

Each compound below has a reported value. Please supply its recovery at 2 h, 100 μmol/L.
1. CC1NC(NCCC[C@H](N)C(=O)O)=NC1=O (stereo partly drawn) [MG-H1, methylglyoxal–hydroimidazolone]
2. N[C@@H](CCCCNCC(=O)O)C(=O)O
3. CC(NCCCC[C@H](N)C(=O)O)C(=O)O (stereo partly drawn)
4. N[C@@H](CCCC[n+]1cccc2[nH]c(NCCC[C@H](N)C(=O)O)nc21)C(=O)O

## Result
94.6
96.9
95.5
92.6

* * *

- Tested on: PepT1
- assayMethodText: Transport of AGE mixture across Caco-2 cell layer (transwell, apical to basolateral)
- Format: in vitro ADME, Human
- details: human, Caco-2, with Gly-Sar 10 mmol/L (apical compartment), Gly-Sar 10 mmol/L; mixture, each AGE 100 μmol/L; 2 h; read-out: percentage of the amount added at the apical side at t = 0: recovery
Cut-off 90% on recovery at 2 h, 100 μmol/L, inclusive. At or above means 1.0; below means 0.0.

Example entries begin here.
INSERT INTO assay_data (molecule, labelclass) VALUES
  ('N[C@@H](CCCCn1c(C=O)ccc1CO)C(=O)O [pyrraline]', 0.0),
  ('N[C@@H](CCCCNCC(=O)O)C(=O)O [CML, N-ε-(carboxymethyl)-lysine]', 1.0),
  ('Cc1c[n+](CCCC[C@H](N)C(=O)O)cn1CCCC[C@H](N)C(=O)O [MOLD, methylglyoxal–lysine dimer]', 1.0),
  ('N[C@@H](CCCCNC(=O)CO)C(=O)O [GALA, glycolic acid–lysine–amide]', 0.0),
  ('N[C@@H](CCCC[n+]1cccc2[nH]c(NCCC[C@H](N)C(=O)O)nc21)C(=O)O [pentosidine]', 1.0),
  ('Cc1nc(NCCC[C@H](N)C(=O)O)nc(C)c1O [argpyrimidine]', 1.0);

Now turn to the next molecule.
## Task Dear colleague, could you confirm whether N[C@@H](CCCCn1cc[n+](CCCC[C@H](N)C(=O)O)c1)C(=O)O [GOLD, glyoxal-derived lysine dimer] has recovery at 2 h, 100 μmol/L at or above 90%?
## Result 1.0

* * *

- System: Caco-2 cell monolayer
- assayMethodText: Accumulation of AGEs in the Caco-2 cell monolayer after transport experiment
- Format: in vitro ADME, Human
- details: Gly-Sar 10 mmol/L; mixture, each AGE 100 μmol/L; 2 h
Marks after values point to notes of the source that are not given here.
metricName: percentage of the amount added at the apical side at t = 0: accumulation

Each compound below has a reported value. Please supply its percentage of the amount added at the apical side at t = 0: accumulation.
1. Cc1nc(NCCC[C@H](N)C(=O)O)nc(C)c1O
2. N[C@@H](CCCCn1c(C=O)ccc1CO)C(=O)O
3. N[C@@H](CCCCn1cc[n+](CCCC[C@H](N)C(=O)O)c1)C(=O)O

## Result
1. 0.5 ± 0.2 ^a %
2. 0.1 ± 0.0 ^a %
3. 0.1 ± 0.0 ^a %

Each compound below has a reported value. Please supply its percentage of the amount added at the apical side at t = 0: accumulation.
1. N[C@@H](CCCCNCC(=O)O)C(=O)O
2. N[C@@H](CCCC[n+]1cccc2[nH]c(NCCC[C@H](N)C(=O)O)nc21)C(=O)O
3. Cc1c[n+](CCCC[C@H](N)C(=O)O)cn1CCCC[C@H](N)C(=O)O
4. CC(NCCCC[C@H](N)C(=O)O)C(=O)O (stereo partly drawn)
5. CC1NC(NCCC[C@H](N)C(=O)O)=NC1=O (stereo partly drawn) [MG-H1, methylglyoxal–hydroimidazolone]
6. N[C@@H](CCCCNC(=O)CO)C(=O)O [GALA, glycolic acid–lysine–amide]

## Result
1: 6.0 ± 2.1 ^a %; 2: 0.0 ± 0.0 ^a %; 3: 0.0 ± 0.1 ^a %; 4: 1.3 ± 0.2 ^a %; 5: 0.3 ± 0.1 ^b %; 6: 0.2 ± 0.1 ^a %
